We begin with a simple list: items and their reported RP-LC retention time.
assay: gradient 5% acetonitrile 3 min, to 50% in 2 min, to 85% in 15 min, held 3 min, 100 µL/min; conditions: column: Zorbax Extend-C18 2.1 x 50 mm; eluents: water / acetonitrile, 0.1% formic acid
// note: answer is a bare numeric in s

Please review the following examples before continuing.
• COc1ccc(CN2CCc3nc(N4CCN(c5ncccn5)CC4)ncc3C2)c(OC)c1 = 664
• Cc1ccc(O)c(CNC2CCN(c3ccc(C(=O)NC4CC4)cn3)C2)c1 (centres undefined) = 560
• CC(C)c1csc(-c2csc(S(=O)(=O)NCc3ccc(N(C)C)cc3)c2)n1 = 930
• CC1CCC(NC(=O)c2nnn(Cc3cccc(F)c3)c2-n2cccc2)CC1 (centres undefined) = 1160
• Cc1ccccc1-c1noc(CN2N=NC3C(=O)N(c4cccc(Cl)c4)C(=O)C32)n1 (centres undefined) = 996
• O=C(NCC1CCN(C(=O)COc2ccccc2)CC1)c1ccccc1C(F)(F)F = 753
• O=C(Cn1cccc(-c2nc(-c3ccc(Br)cc3)no2)c1=O)NCc1ccccc1 = 939
• Cc1ccc(S(=O)(=O)N2CCCOC2CNC(=O)C(=O)NCCCn2ccnc2)cc1 (centres undefined) = 558

// query Give the reported value of RP-LC retention time for this record: `CSc1ccc(NC(=O)CCNc2cnc3cnccn23)cc1`
// result 619

###

test: gradient 5% acetonitrile 3 min, to 50% in 2 min, to 85% in 15 min, held 3 min, 100 µL/min; conditions: column: Zorbax Extend-C18 2.1 x 50 mm; eluents: water / acetonitrile, 0.1% formic acid
Mark T only when RP-LC retention time stays strictly below 800 s. Values equal to the cut-off are F.

Previously resolved entries follow.
• CC(C)c1ccc(C2C(C(=O)c3ccccc3)C(=O)C(=O)N2CCCN2CCOCC2)cc1 (stereo not given) = T
• CCN(CC)S(=O)(=O)c1ccc2c(c1)CC(C(=O)NCCC1=CCCCC1)N2C(C)=O (stereo not given) = F
• CCNC(=O)Nc1ccc2c(c1)CN(S(=O)(=O)Cc1ccccc1)CCO2 = T
• Cc1ccccc1-c1noc(Cn2c(=O)n(C(C)C)c(=O)c3ccccc32)n1 = F
• COc1ccc(Cl)cc1NC(=O)N1CCc2c(c(COc3ccccc3)nn2C)C1 = F
• Cc1cccc(CN2CC(c3noc(C4CCCN4CC4CC4)n3)C2)c1 (stereo not given) = T
• Cc1noc(-c2ccnc(-n3ncc(C(=O)NC4CCCC4)c3C)c2)n1 = F
• Cc1ccc(CNC(=O)C2(C)CN(S(C)(=O)=O)CC(=O)N2CCc2ccccc2)cc1 (stereo not given) = F

// query Hello, I'm reviewing records and need to know if RP-LC retention time of NC(=O)C1CCN(C(c2cccc(Cl)c2)c2sc3nc(-c4ccco4)nn3c2O)CC1 (stereo not given) is below 800 s. Could you check?
// result T

// query Hello, I'm reviewing records and need to know if RP-LC retention time of CC(C(=O)NCCCN1CCCCC1)n1ccc2cc(S(=O)(=O)N3CCCCCC3)ccc21 (stereo not given) is below 800 s. Could you check?
// result T

// query Hello, I'm reviewing records and need to know if RP-LC retention time of `CCOCC(=O)Nc1ccc(-c2nnc(CC)o2)cc1` is below 800 s. Could you check?
// result T

// query Hello, I'm reviewing records and need to know if RP-LC retention time of `CCn1cc(-c2ccc(Cl)cc2)cc1C(=O)N(C)C` is below 800 s. Could you check?
// result F

// query Hello, I'm reviewing records and need to know if RP-LC retention time of `COc1ccc(-c2nnc(NC(=O)CSc3nc4ccccc4s3)s2)cc1` is below 800 s. Could you check?
// result F

// query Hello, I'm reviewing records and need to know if RP-LC retention time of CCCCNC(=O)C1CCCN(c2nnc3c(Cl)cccn23)C1 (stereo not given) is below 800 s. Could you check?
// result T

// query Hello, I'm reviewing records and need to know if RP-LC retention time of `COC(=O)c1ccccc1NC1=NS(=O)(=O)C(c2ccc(F)cc2)=C1C` is below 800 s. Could you check?
// result F
